Assay: activators of inactive X chromosome reactivation, primary screen, imaging, XiGFP fibroblasts, GFP high-content imaging, set 2 (AID 743238);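 note: 0% = median of on-plate neutral control wells and 100% = ellipticine 6 µM median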
Conditions: XiGFP mouse fibroblasts, % GFP-positive cells imaging, 3 d; at 7.58 µM; stronger effect = higher value; cells co-treated with 5-aza-dC sensitizer; scaled so ellipticine positive control = 100%
The campaign covered roughly 360,000 compounds. About 200 (0.056%) were called active. What follows is part of a selection rich in actives, with near analogues and random picks from the rest.
Listing of recorded activation by entry.
MEASURED ENDPOINT: activation (%)

> print(dat)
                                item.smiles  measured.endpoint  reported
1  COc1ccc(S(=O)(=O)Nc2ccc3c(c2)C(=O)N([C@@H](C)CO)C[C@H](C)[C@@H](CN(C)C(=O)c2ccccc2)OCCCC[C@H](C)O3)cc1         activation     0.072
2  C[C@H](CO)N1C[C@H](C)[C@@H](CN(C)S(=O)(=O)c2cccs2)Oc2ccc(NC(=O)Nc3ccc(C(F)(F)F)cc3)cc2CC1=O         activation    -0.017
3  O=C(c1ccncc1)N1CC(=O)N2[C@H](C1)[C@@H](c1ccc(C#CCC3CCCC3)cc1)[C@@H]2CO         activation     0.192
4  C[C@@H](NC(=O)[C@H]1[C@H](CO)[C@H]2Cn3c(cccc3=O)[C@@H]1N2Cc1cccnc1)c1ccccc1         activation     0.133
5  CC(C)NC(=O)N(C)C[C@@H]1Oc2c(cccc2N(C)C)C(=O)N([C@H](C)CO)C[C@@H]1C         activation     0.155
6  COc1cccc(/C=C/C(=O)OCC(=O)N2CCCc3ccccc32)c1         activation      0.22
7  CC(=O)N1[C@@H]2c3ccc(-c4ccccc4)c(=O)n3C[C@@H]2[C@@H](CO)[C@@H]1C(=O)NCc1ccccc1F         activation      0.21
